experiment: Cytotoxicity against HEK293 cells expressing human AC1 at 30 uM preincubated for 30 mins followed by A23187 stimulation and measured after 1 hr by CellTiter-Glo luminescent cell viability assay relative to control; format: cell-based; conditions: HEK293 cells expressing human AC1, read-out: Activity
Each entry below carries its reported viability at 1 h, 30 µM.
Answer with a number only, understood to be in %.

// below: answered compounds
>  <STRUCTURE SMILES>
O=C(Nc1nnc(C2CCCCC2)o1)c1cccc(C(F)(F)F)c1

>  <viability at 1 h, 30 µM / %>
102

$$$$
>  <STRUCTURE SMILES>
O=C(Nc1nnc(-c2ccc3c(c2)CCCC3)o1)c1ccc(Cl)cc1

>  <viability at 1 h, 30 µM / %>
97

$$$$
>  <STRUCTURE SMILES>
Cc1cc(C(=O)Nc2nnc(C3CCCCC3)o2)cc(C(F)(F)F)c1

>  <viability at 1 h, 30 µM / %>
125

$$$$

Documented viability at 1 h, 30 µM of Cc1ccc(C(=O)Nc2nnc(-c3ccc(F)cc3)o2)cc1C(F)(F)F : 133

Documented viability at 1 h, 30 µM of CSc1cccc(C(=O)Nc2nnc(-c3ccc4c(c3)OCCO4)o2)c1 : 109

Documented viability at 1 h, 30 µM of O=C(Nc1nnc(-c2ccc(F)cc2)o1)c1cccc(C(F)(F)F)c1 : 108

----------
Each entry below carries its reported viability at 1 h, 30 µM.
assay: Cytotoxicity against HEK293 cells expressing human AC1 at 30 uM preincubated for 30 mins followed by A23187 stimulation and measured after 1 hr by CellTiter-Glo luminescent cell viability assay relative to control; format: cell-based; conditions: HEK293 cells expressing human AC1, read-out: Activity
Answer with a number only, understood to be in %.

// below: answered molecules
>  <STRUCTURE SMILES>
O=C(Nc1nnc(-c2ccc3c(c2)OCCO3)o1)c1cccc(C(F)(F)F)c1

>  <MEASURE UNIT>
%

>  <viability at 1 h, 30 µM>
116

$$$$
>  <STRUCTURE SMILES>
O=C(Nc1nnc(-c2cccs2)o1)c1ccccc1

>  <MEASURE UNIT>
%

>  <viability at 1 h, 30 µM>
97

$$$$
>  <STRUCTURE SMILES>
O=C(Nc1nnc(-c2ccc(F)cc2)o1)c1ccc(Cl)cc1

>  <MEASURE UNIT>
%

>  <viability at 1 h, 30 µM>
84

$$$$
>  <STRUCTURE SMILES>
CC(C)Oc1ccc(C(=O)Nc2nnc(-c3ccco3)o2)cc1

>  <MEASURE UNIT>
%

>  <viability at 1 h, 30 µM>
58

$$$$
>  <STRUCTURE SMILES>
Cc1ccc(C(=O)Nc2nnc(-c3ccc4c(c3)OCCO4)o2)cc1

>  <MEASURE UNIT>
%

>  <viability at 1 h, 30 µM>
98

$$$$

Documented viability at 1 h, 30 µM of COc1cccc(C(=O)Nc2nnc(-c3ccc4c(c3)OCCO4)o2)c1 : 103

Documented viability at 1 h, 30 µM of Cc1ccc(C(=O)Nc2nnc(-c3ccc4c(c3)CCCC4)o2)cc1C(F)(F)F : 115

Documented viability at 1 h, 30 µM of CC(C)Oc1ccc(C(=O)Nc2nnc(C3CCCCC3)o2)cc1 : 99

Documented viability at 1 h, 30 µM of CSc1cccc(C(=O)Nc2nnc(-c3cccs3)o2)c1 : 110

Documented viability at 1 h, 30 µM of O=C(Nc1nnc(-c2ccc3c(c2)OCCO3)o1)c1ccc(Br)cc1 : 121

Documented viability at 1 h, 30 µM of COc1cccc(C(=O)Nc2nnc(-c3ccc(F)cc3)o2)c1 : 99

Documented viability at 1 h, 30 µM of O=C(Nc1nnc(-c2ccc3c(c2)CCCC3)o1)c1cccc(F)c1 : 94

Documented viability at 1 h, 30 µM of COc1cc(C(=O)Nc2nnc(-c3ccc(F)cc3)o2)cc(C(F)(F)F)c1 : 108

Documented viability at 1 h, 30 µM of O=C(Nc1nnc(-c2ccc(F)cc2)o1)c1ccc(S(=O)(=O)N2CCCCC2)cc1 : 119

Documented viability at 1 h, 30 µM of Cc1ccc(C(=O)Nc2nnc(-c3ccc(F)cc3)o2)cc1C : 95

----------
biological target: Adenylate cyclase type 1 (Homo sapiens, UniProt Q08828); assay: Inhibition of human AC1 expressed in HEK293 cells assessed as decrease in A23187-stimulated cAMP accumulation preincubated for 30 mins followed by A23187 stimulation and measured after 1 hr by fluorescence assay; type: cell-based
Sequence (Q08828 whole entry): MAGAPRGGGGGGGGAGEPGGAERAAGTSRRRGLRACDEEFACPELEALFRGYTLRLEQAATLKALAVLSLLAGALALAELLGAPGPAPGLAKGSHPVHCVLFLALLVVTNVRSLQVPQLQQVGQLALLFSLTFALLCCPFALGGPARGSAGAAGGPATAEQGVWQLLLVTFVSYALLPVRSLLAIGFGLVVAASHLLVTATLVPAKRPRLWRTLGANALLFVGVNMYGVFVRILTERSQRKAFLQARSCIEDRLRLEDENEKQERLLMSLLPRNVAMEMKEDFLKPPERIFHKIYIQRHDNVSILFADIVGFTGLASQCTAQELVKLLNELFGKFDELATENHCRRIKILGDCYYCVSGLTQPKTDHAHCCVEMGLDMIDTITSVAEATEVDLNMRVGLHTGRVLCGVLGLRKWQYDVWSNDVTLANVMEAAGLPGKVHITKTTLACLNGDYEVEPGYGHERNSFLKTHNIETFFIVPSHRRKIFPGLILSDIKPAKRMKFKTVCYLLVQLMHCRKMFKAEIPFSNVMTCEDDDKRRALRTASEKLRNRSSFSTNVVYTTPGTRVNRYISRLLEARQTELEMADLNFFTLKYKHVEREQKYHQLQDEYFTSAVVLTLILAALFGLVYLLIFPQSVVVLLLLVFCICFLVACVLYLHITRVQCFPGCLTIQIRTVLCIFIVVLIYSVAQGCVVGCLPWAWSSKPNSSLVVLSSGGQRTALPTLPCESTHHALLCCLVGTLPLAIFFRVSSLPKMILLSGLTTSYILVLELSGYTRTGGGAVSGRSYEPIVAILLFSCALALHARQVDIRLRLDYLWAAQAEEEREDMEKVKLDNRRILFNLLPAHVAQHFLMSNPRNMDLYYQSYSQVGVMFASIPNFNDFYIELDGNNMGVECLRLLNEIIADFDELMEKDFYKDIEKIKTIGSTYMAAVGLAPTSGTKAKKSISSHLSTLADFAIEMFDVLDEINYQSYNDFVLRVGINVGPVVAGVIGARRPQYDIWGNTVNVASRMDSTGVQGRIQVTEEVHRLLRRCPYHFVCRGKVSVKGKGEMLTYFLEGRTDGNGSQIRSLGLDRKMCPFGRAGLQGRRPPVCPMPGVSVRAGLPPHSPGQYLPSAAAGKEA
READOUT: IC50 (µM)
Answer with a number only, understood to be in µM.

// below: answered molecules
>  <STRUCTURE SMILES>
Cc1ccc(C(=O)Nc2nnc(C3CCCCC3)o2)cc1

>  <IC50 / µM>
16

$$$$
>  <STRUCTURE SMILES>
O=C(Nc1nnc(C2CCCCC2)o1)c1cccc(F)c1

>  <IC50 / µM>
11

$$$$
>  <STRUCTURE SMILES>
CCOc1cccc2cc(-c3nnc(NC(=O)c4ccccc4SC)o3)oc12

>  <IC50 / µM>
11

$$$$
>  <STRUCTURE SMILES>
CC(C)Oc1ccc(C(=O)Nc2nnc(-c3ccccc3)o2)cc1

>  <IC50 / µM>
5.4

$$$$

Documented IC50 of Cc1ccc(C(=O)Nc2nnc(-c3ccc4c(c3)OCCO4)o2)cc1 : 12

Documented IC50 of COc1ccc(C(=O)Nc2nnc(-c3ccc(F)cc3)o2)cc1 : 13

Documented IC50 of O=C(Nc1nnc(C2CCCCC2)o1)c1ccc(F)cc1 : 13

Documented IC50 of O=C(Nc1nnc(-c2ccc(F)cc2)o1)c1cccc(F)c1 : 11

Documented IC50 of O=C(Nc1nnc(-c2ccc3c(c2)CCCC3)o1)c1ccc(Cl)cc1 : 1.5

Documented IC50 of O=C(Nc1nnc(C2CCCCC2)o1)c1ccc(Cl)cc1 : 14

----------
biological target: Adenylate cyclase type 1 (Homo sapiens); experiment: Inhibition of human AC1 expressed in HEK293 cells assessed as decrease in A23187-stimulated cAMP accumulation preincubated for 30 mins followed by A23187 stimulation and measured after 1 hr by fluorescence assay; format: cell-based
Classify: Fulfilled when IC50 is strictly less than 20 µM; Not fulfilled when IC50 is not.

Worked examples follow.
>  <STRUCTURE SMILES>
COc1ccc(-c2nnc(NC(=O)c3cc(-c4cccs4)nc4ccccc34)o2)cc1

>  <LABEL CLASS>
Fulfilled

$$$$
>  <STRUCTURE SMILES>
O=C(Nc1nnc(-c2ccc(F)cc2)o1)c1ccc(S(=O)(=O)N2CCCCC2)cc1

>  <LABEL CLASS>
Fulfilled

$$$$

Consider the compound O=C(Nc1nnc(-c2ccccc2)o1)c1cccc(C(F)(F)F)c1 . Is its IC50 strictly less than 20 µM?
Fulfilled

----------
biological target: Adenylate cyclase type 2 (Homo sapiens) (UniProt Q08462); assay: Inhibition of human AC2 expressed in HEK293 cells assessed as PMA-stimulated cAMP accumulation at 30 uM preincubated for 30 mins followed by PMA stimulation and measured after 1 hr by fluorescence assay relative to control; type: cell-based; design: scale not given: the % may be the effect or the level left
Sequence (Q08462 whole entry): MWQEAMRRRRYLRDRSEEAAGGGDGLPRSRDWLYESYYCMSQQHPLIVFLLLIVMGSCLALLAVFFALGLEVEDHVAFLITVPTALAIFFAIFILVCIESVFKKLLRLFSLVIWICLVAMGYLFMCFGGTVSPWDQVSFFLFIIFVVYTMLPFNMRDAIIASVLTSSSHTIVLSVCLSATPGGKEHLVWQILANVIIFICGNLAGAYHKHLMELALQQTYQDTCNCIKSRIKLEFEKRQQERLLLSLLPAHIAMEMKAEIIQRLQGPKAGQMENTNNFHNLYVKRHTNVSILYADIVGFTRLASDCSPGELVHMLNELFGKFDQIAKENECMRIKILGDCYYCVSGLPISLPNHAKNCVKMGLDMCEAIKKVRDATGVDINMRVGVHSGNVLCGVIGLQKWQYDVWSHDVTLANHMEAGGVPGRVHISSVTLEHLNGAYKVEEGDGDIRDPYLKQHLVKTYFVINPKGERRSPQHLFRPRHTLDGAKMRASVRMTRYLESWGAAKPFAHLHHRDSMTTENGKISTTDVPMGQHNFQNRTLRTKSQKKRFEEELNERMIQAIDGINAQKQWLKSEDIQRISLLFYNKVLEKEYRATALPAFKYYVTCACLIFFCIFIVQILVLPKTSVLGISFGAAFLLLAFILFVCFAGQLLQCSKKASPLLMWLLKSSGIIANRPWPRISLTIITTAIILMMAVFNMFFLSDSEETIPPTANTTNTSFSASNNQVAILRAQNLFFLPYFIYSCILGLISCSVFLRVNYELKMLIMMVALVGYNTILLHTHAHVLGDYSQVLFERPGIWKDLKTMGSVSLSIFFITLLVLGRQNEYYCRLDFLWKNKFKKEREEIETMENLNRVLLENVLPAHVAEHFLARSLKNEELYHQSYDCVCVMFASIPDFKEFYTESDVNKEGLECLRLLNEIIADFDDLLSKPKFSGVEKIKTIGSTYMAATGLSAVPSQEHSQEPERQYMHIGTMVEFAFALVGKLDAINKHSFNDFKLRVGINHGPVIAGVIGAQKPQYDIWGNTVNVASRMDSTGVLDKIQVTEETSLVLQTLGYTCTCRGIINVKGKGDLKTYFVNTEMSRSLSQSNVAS
READOUT: Activity (%)
Answer with a number only, understood to be in %.

// below: answered molecules
>  <STRUCTURE SMILES>
Cc1ccc(C(=O)Nc2nnc(-c3ccc4c(c3)OCCO4)o2)cc1

>  <MEASURE UNIT>
%

>  <Activity>
218

$$$$
>  <STRUCTURE SMILES>
O=C(Nc1nnc(-c2ccc3c(c2)CCCC3)o1)c1ccc(Br)cc1

>  <MEASURE UNIT>
%

>  <Activity>
160

$$$$
>  <STRUCTURE SMILES>
O=C(Nc1nnc(-c2ccc3c(c2)CCCC3)o1)c1cccc(C(F)(F)F)c1

>  <MEASURE UNIT>
%

>  <Activity>
449

$$$$
>  <STRUCTURE SMILES>
O=C(Nc1nnc(-c2ccc3c(c2)OCCO3)o1)c1ccc(Br)cc1

>  <MEASURE UNIT>
%

>  <Activity>
198

$$$$
>  <STRUCTURE SMILES>
Cc1ccc(C(=O)Nc2nnc(-c3ccc(F)cc3)o2)cc1

>  <MEASURE UNIT>
%

>  <Activity>
341

$$$$

Documented Activity of Cc1ccc(C(=O)Nc2nnc(-c3ccc4c(c3)CCCC4)o2)cc1 : 275

----------
Each entry below carries its reported viability at 1 h, 30 µM.
test: Cytotoxicity against HEK293 cells expressing human AC1 at 30 uM preincubated for 30 mins followed by A23187 stimulation and measured after 1 hr by CellTiter-Glo luminescent cell viability assay relative to control; format: cell-based; conditions: HEK293 cells expressing human AC1, read-out: Activity
Answer with a number only, understood to be in %.

>  <STRUCTURE SMILES>
O=C(Nc1nnc(C2CCCCC2)o1)c1cccc(F)c1

>  <REPORTED RESULT>
87

$$$$
>  <STRUCTURE SMILES>
O=C(Nc1nnc(C2CCCCC2)o1)c1cccc(-c2ccccc2)c1

>  <REPORTED RESULT>
115

$$$$
>  <STRUCTURE SMILES>
Cc1cc(C(=O)Nc2nnc(-c3ccc(F)cc3)o2)cc(C(F)(F)F)c1

>  <REPORTED RESULT>
102

$$$$

Documented viability at 1 h, 30 µM of O=C(Nc1nnc(C2CCCCC2)o1)c1ccc(Br)cc1 : 108

Documented viability at 1 h, 30 µM of COc1ccc(C(=O)Nc2nnc(-c3cccs3)o2)cc1 : 97
